Value source: PubChem BioAssay (NCI)

- Tested on: OVCAR-4 ovarian
- assay-name: NCI-60 one-dose screen, 48 h (100 = growth as untreated, 0 = no growth, -100 = all killed)
- reported-conditions: 10 µM unless noted
This is part of a sample that, as a whole, favours compounds with a hit. Of some 83,000 tested, about 20% had one in any assay.
The label depends only on growth: Satisfied if it is at least 90%, Not satisfied if it is smaller.

# molecule, label-class
records = [
    ("COc1ccc(CN2C(=O)/C(=C\\C(=O)c3ccc(OCCN4CCCC4)cc3)c3ccccc32)cc1", "Not satisfied"),
    ("CN(C)CCOC(=O)C(C)(C)C", "Satisfied"),
    ("CC(C)OC(=O)Nn1cnc2ccccc21", "Satisfied"),
    ("COC(=O)C(N)CC(C)C (stereo not drawn)", "Satisfied"),
    ("COc1cc(OC)c(NC(=O)n2ncc3cc(Nc4ncnc5ccccc45)ccc32)cc1Cl", "Satisfied"),
    ("N#Cc1c(N)nc(Nc2nc3ccccc3[nH]2)nc1-c1ccc(Cl)cc1", "Satisfied"),
    ("[2H]c1nc(=Nc2cc(NC(=O)C=C)c(N(C)CCN(C)C)cc2OC)[nH]c(-c2cn(C([2H])([2H])[2H])c3ccccc23)c1[2H]", "Not satisfied"),
    ("CCOC(=O)c1c2c(cn1Cc1ccccc1)-c1oncc1CC2", "Satisfied"),
    ("CC/C(=N\\Nc1nc2ccccc2n1C)c1ccccn1", "Not satisfied"),
    ("OCC(O)C(O)CC1SCCS1 (stereo not drawn)", "Satisfied"),
    ("CC(=O)N1N=C(c2ccc(Cl)cc2)CC1c1cn(-c2ccccc2)nc1-c1ccc([N+](=O)[O-])cc1 (stereo not drawn)", "Not satisfied"),
    ("CCCCCCCCCc1cc[n+](CC(=O)c2ccc([N+](=O)[O-])cc2)cc1", "Not satisfied"),
    ("COc1cc2ncnc(-n3ncc4cc(NC(=O)Nc5ccc(Cl)c(Cl)c5)ccc43)c2cc1OC", "Not satisfied"),
    ("O=S(=O)(O)CCI", "Satisfied"),
    ("FC(F)(F)c1cccc(-c2[nH]ncc2-c2nnnn2-c2ccccc2)c1", "Not satisfied"),
    ("CCC(C)CC(N)O (stereo not drawn)", "Satisfied"),
    ("COc1cc(CCNc2cnc3cc(N)cc(N)c3n2)cc(OC)c1", "Satisfied"),
    ("COc1ccc(/C=N/c2cc(C(C)(C)C)nn2-c2ccccc2)cc1", "Satisfied"),
    ("COc1cc(-c2c3c(cn2CCN2CCCCC2)-c2oncc2CC3)cc(OC)c1OC", "Satisfied"),
    ("COc1cc(/C(=C2/O[C@@H]([C@H]3COC(C)(C)O3)[C@H]3OC(C)(C)O[C@@H]23)c2ccc3c(c2)OCO3)cc(OC)c1OC", "Not satisfied"),
    ("CCOP1(=O)CC(C)=C(Cl)C(P(=O)(O)O)C1 (stereo not drawn)", "Satisfied"),
    ("COc1cc(NC(C)CCCN)c2nc(C)ccc2c1OC (stereo not drawn)", "Satisfied"),
    ("CCCCCc1ccnc(CC(=O)c2ccc(OC)cc2)c1", "Not satisfied"),
    ("c1ccc(-c2cn3ccnc3c(-c3ccc4ncn(C5CCCCC5)c4c3)n2)cc1", "Not satisfied"),
    ("O=C1C(Br)=CC2C1C1C3CCC3C2(Br)C12OCCO2 (stereo not drawn)", "Not satisfied"),
    ("O=C(N/N=C/c1coc2ccccc2c1=O)c1cc2oc(-c3ccccc3)cc2[nH]1", "Satisfied"),
    ("CC(=O)OC1/C=C\\CC/C=C\\C1 (stereo not drawn)", "Satisfied"),
    ("S=C(N/N=C/c1cc(Cl)cc(Cl)c1)NC12CC3CC(CC(C3)C1)C2", "Not satisfied"),
]

====

- Tested on: KM12 colon
- assay-name: NCI-60 one-dose screen, 48 h
- reported-conditions: 10 µM unless noted
Compounds without any hit were thinned out: in the full panel of roughly 83,000, 20% have a hit. Activity calls are given as the source filed them. The calls were made as follows: active = growth percent below 10; inactive = the rest.
Outcomes: t = active, f = inactive

# molecule, target-or-system, label-class
measured = [
    ("O=C(CCl)c1ccc2c(c1)CCCC2", "KM12 colon", "f"),
    ("O=C(/C=C\\c1ccccc1Cl)c1ccccc1", "KM12 colon", "f"),
    ("Oc1ccc2ccccc2c1/C=N\\Nc1ccccn1", "KM12 colon", "f"),
    ("CCCCCCCCCCCCCCCCNC(=O)Nc1ccc(C)c(NC(=O)NCCCCCCCCCCCCCCCC)c1", "KM12 colon", "f"),
    ("Cc1ccc(CC(=O)O)c(C)c1", "KM12 colon", "f"),
    ("CC(=O)Nc1nc(C)c(C(=O)NNC(=O)Nc2ccccc2)s1", "KM12 colon", "f"),
    ("O=C(O)COc1ccc([N+](=O)[O-])cc1Cl", "KM12 colon", "f"),
    ("CCCC(C)c1cc(Cc2cc(Cl)cc(Cl)c2O)c(O)c(Cc2cc(Cl)cc(Cl)c2O)c1 (stereo unspecified)", "KM12 colon", "t"),
    ("O=C(O)/C(Br)=C/c1c[nH]c2ccc(Br)cc12", "KM12 colon", "f"),
    ("CN1CCN(Cc2ccc(NC(=O)c3cncc(C#Cc4c(N)ncc5ccc(F)cc45)c3)cc2C(F)(F)F)CC1", "KM12 colon", "t"),
    ("CCCCCCCCCCCCc1ccc([N+](CC)(CC)CC)cc1", "KM12 colon", "f"),
    ("COC(c1ccccc1)C(Br)C(=O)c1ccccc1 (stereo unspecified)", "KM12 colon", "f"),
    ("CCCCCCCCCCC1OC(C)CC(C)O1 (stereo unspecified)", "KM12 colon", "f"),
    ("O=C(OCC1CC2(Cl)C(Cl)=C(Cl)C1(Cl)C2(Cl)Cl)C1C(C(=O)OCC2CC3(Cl)C(Cl)=C(Cl)C2(Cl)C3(Cl)Cl)C2(Cl)C(Cl)=C(Cl)C1(Cl)C2(Cl)Cl (stereo unspecified)", "KM12 colon", "f"),
    ("COc1ccc(-c2nc(N)n(C(=S)Nc3ccccc3)n2)cc1", "KM12 colon", "f"),
    ("O=C1Nc2c(c(=O)n(-c3ccccc3)c3ccccc23)C(c2ccc(Cl)cc2)N1 (stereo unspecified)", "KM12 colon", "f"),
    ("OCCN1CCN(CC/C=C2/c3ccccc3Sc3ccc(C(F)(F)F)cc32)CC1", "KM12 colon", "f"),
    ("NNC(=O)CNc1ccc2ccccc2c1", "KM12 colon", "f"),
    ("COc1ccc2oc(=O)cc(CN3C(=O)S/C(=C\\c4ccc(Cl)cc4)C3=O)c2c1", "KM12 colon", "f"),
    ("CCOC(=O)c1cc(C(=O)c2ccc(Br)cc2)n2cc(C)cc(C)c12", "KM12 colon", "f"),
    ("CCN(CC)c1ccc2nc3ccc(N=Nc4ccc(O)cc4)cc3[n+](-c3ccccc3)c2c1", "KM12 colon", "f"),
    ("COc1cc(OC)c(/C=C/c2ccc3ccccc3[n+]2C)c(OC)c1", "KM12 colon", "t"),
    ("CCCCCCCCCCCCOC(=N)N(C)C", "KM12 colon", "f"),
    ("CCCCCCCCC/C(=N\\NC(=O)c1ccncc1)c1ccc(O)c(O)c1O", "KM12 colon", "f"),
    ("Cc1ccc(C(C)C)c(OCc2ccc(C(=O)N/N=C/c3cccc(O)c3O)cc2)c1", "KM12 colon", "f"),
    ("Nc1cc2c(cc1Br)[nH]c(=O)c1ccccc12", "KM12 colon", "f"),
    ("N/C(=N\\O)c1ccncc1", "KM12 colon", "f"),
    ("N#CCc1ncc(-c2ccc(C(F)(F)F)cc2)c(NC2CCCCCC2)n1", "KM12 colon", "t"),
    ("CCCCCCC(C(=O)OCC)(C(=O)OCC)C1CCCCCC1", "KM12 colon", "f"),
    ("O=C1C(Br)=CC2C1C1C3CCC3C2(Br)C12OCCO2 (stereo unspecified)", "KM12 colon", "f"),
    ("O=C(O)CS(=O)c1ccc(Cl)cc1 (stereo unspecified)", "KM12 colon", "f"),
]

====

- Test system: RXF 393 renal
- assay-name: NCI-60 one-dose screen, 48 h
- reported-conditions: 10 µM unless noted
This is part of a sample that, as a whole, favours compounds with a hit. Of some 83,000 tested, about 20% had one in any assay. Active and inactive are the calls of the source. Rule for the calls: active = growth percent below 10; inactive = the rest.
Classes used: TRUE = active, FALSE = inactive

# item-smiles, label-class
rows = [
    ("Cc1cc2cn3c4ccc(O)cc4[nH]c(=O)c3c2cc1C", "FALSE"),
    ("Cc1ccc(OCCn2ccc(=O)n(CCOc3ccc(Cl)cc3C(=O)c3cc(C)cc(C)c3)c2=O)cc1", "FALSE"),
    ("CN1NC(c2ccccc2)NN(C)C1=O", "FALSE"),
    ("NCCCOc1cc2ccccc2cc1C(=O)Nc1ccc(Cl)cc1OC(=O)c1cc2ccccc2cc1OCCCN", "TRUE"),
    ("O=S(=O)(O)CCI", "FALSE"),
    ("CCCCCCNc1nc(N2CCOCC2)c2[nH]c(NCCCCCC)nc2n1", "TRUE"),
    ("CCn1cnc(C[C@H](NC(=O)[C@@H](NC(=O)Nc2cc(C(F)(F)F)cc(C(F)(F)F)c2)C(C)C)C(=O)OC)c1", "TRUE"),
]
